- targetOfAssay: endothelial lipase (EL) (Homo sapiens)
- Construct: HT-1080 cells, which were transformed by RAGE technology (Athersys) to overexpress endogenous EL; endogenous in cells; conditioned medium used as the enzyme source
- procedureSummary: Endothelial lipase (EL) enzymatic assay with fluorescent substrate A10070 in DMPG vesicles
- runParameters: conditioned media from HT-1080 cells overexpressing endogenous EL; 20 min preincubation at 37° C.; read-out: HLE_EL_CRC IC50
Consider the following compounds; for each one, report its IC50.
Kindly answer with a numeric value in nM, unit omitted.

Using the record for CC(CCc1ccc(Cl)c(Cl)c1)NC(=O)C1=C(O)C(=O)N([C@H]2CCc3ccc(C(F)(F)F)cc32)C1 (some centres unmarked) , state its measured IC50. 500

Using the record for CC(CCc1ccc(Cl)c(Cl)c1)NC(=O)C1=C(O)C(=O)N(Cc2c[nH]nn2)C1 (centres unmarked) , state its measured IC50. 3440

Using the record for CN1CC(C(=O)NC(CCc2ccc(Cl)c(Cl)c2)C2CC2)=C(O)C1=O (centres unmarked) [Example 232] , state its measured IC50. 5460

Using the record for CC(CCc1ccc(Cl)c(Cl)c1)NC(=O)C1=C(O)C(=O)N(CCC(=O)O)C1 (centres unmarked) , state its measured IC50. 575

Using the record for "O=C(NCCCc1ccc(Cl)c(Cl)c1)C1=C(O)C(=O)N(CCOc2ccccc2)C1" , state its measured IC50. 5.44

Using the record for "CCN1CC(C(=O)NC[C@H]2CCc3ccccc3O2)=C(O)C1=O" , state its measured IC50. 6520

Using the record for "CCN1CC(C(=O)NCCCN(C)c2ccccc2)=C(O)C1=O" , state its measured IC50. 3650

Using the record for "CCN1CC(C(=O)NCCc2ccc(S(N)(=O)=O)cc2)=C(O)C1=O" , state its measured IC50. 581

====

- targetOfAssay: endothelial lipase (EL) (Homo sapiens)
- Construct: HT-1080 cells, which were transformed by RAGE technology (Athersys) to overexpress endogenous EL; endogenous in cells; conditioned medium used as the enzyme source
- Sequence (Q9Y5X9 21-500): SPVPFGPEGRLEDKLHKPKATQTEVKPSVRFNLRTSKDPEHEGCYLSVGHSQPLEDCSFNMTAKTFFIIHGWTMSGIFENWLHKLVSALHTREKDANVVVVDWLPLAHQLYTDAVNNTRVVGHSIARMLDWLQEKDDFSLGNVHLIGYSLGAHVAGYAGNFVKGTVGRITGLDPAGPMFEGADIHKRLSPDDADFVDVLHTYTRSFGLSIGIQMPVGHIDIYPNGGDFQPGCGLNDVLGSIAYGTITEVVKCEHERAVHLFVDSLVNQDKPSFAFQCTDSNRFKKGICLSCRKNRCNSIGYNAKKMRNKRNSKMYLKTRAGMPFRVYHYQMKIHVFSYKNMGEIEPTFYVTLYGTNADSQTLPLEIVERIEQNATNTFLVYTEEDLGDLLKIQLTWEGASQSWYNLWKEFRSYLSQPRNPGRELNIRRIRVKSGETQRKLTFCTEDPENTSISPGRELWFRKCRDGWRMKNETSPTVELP
- procedureSummary: Endothelial lipase (EL) enzymatic assay with fluorescent substrate A10070 in DMPG vesicles
- runParameters: conditioned media from HT-1080 cells overexpressing endogenous EL; 20 min preincubation at 37° C.; read-out: HLE_EL_CRC IC50
measuredQuantity: pIC50
In textbook form, pIC50 equals minus log to base ten of the concentration in mol/L.

Using the record for CC(=O)N(C)CCN1CC(C(=O)NC(C)CCc2ccc(Cl)c(Cl)c2)=C(O)C1=O (stereo not shown) , state its measured pIC50. 5.14

Using the record for CN1CC(C(=O)NC(CCc2ccc(Cl)c(Cl)c2)C2CC2)=C(O)C1=O (stereo not shown) [Example 233] , state its measured pIC50. 5.20

Using the record for "O=C(NCCCc1ccc(Cl)c(Cl)c1)C1=C(O)C(=O)N(CC2CCCCC2)C1" , state its measured pIC50. 8.24

Using the record for CC(CCc1ccc(Cl)c(Cl)c1)NC(=O)C1=C(O)C(=O)N(CCNC(=O)c2cc(F)cc(C(F)(F)F)c2)C1 (stereo not shown) , state its measured pIC50. 5.57

====

- targetOfAssay: endothelial lipase (EL) (Homo sapiens, UniProt Q9Y5X9)
- Construct: HT-1080 cells, which were transformed by RAGE technology (Athersys) to overexpress endogenous EL; endogenous in cells; conditioned medium used as the enzyme source
- Sequence (Q9Y5X9 21-500): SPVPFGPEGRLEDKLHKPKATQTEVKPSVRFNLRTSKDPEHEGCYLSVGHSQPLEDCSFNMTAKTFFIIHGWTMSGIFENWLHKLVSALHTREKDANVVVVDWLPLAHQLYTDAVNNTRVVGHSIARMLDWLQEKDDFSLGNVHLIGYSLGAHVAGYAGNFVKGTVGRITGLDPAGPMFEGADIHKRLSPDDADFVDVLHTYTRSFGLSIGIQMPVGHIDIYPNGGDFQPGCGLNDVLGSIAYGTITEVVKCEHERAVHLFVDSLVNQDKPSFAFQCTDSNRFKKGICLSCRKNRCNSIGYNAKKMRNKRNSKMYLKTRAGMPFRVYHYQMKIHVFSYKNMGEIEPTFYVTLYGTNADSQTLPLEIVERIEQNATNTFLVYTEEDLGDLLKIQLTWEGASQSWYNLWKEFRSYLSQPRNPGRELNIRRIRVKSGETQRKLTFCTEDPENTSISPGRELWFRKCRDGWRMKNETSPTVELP
- procedureSummary: Endothelial lipase (EL) enzymatic assay with fluorescent substrate A10070 in DMPG vesicles
- runParameters: conditioned media from HT-1080 cells overexpressing endogenous EL; 20 min preincubation at 37° C.; read-out: HLE_EL_CRC IC50
measuredQuantity: log10 of IC50 (log10 of the value in nM)
Each number you see is log10 of IC50, and the unit inside the log is nM.

Using the record for CCOC(=O)[C@H](Cc1ccccc1)N1CC(C(=O)NCCCc2ccc(Cl)c(Cl)c2)=C(O)C1=O [Example 138] , state its measured log10 of IC50. 2.72

Using the record for C=CC(CCc1ccc(Cl)c(Cl)c1)NC(=O)C1=C(O)C(=O)N(C)C1 (centres unmarked) [Example 236] , state its measured log10 of IC50. 2.69

Using the record for CCN1CC(C(=O)NCCCc2ccc(Cl)c(Cl)c2)=C(NCCCc2ccc(Cl)c(Cl)c2)C1=O [Example 179] , state its measured log10 of IC50. 2.74

Using the record for C[C@@H](NC(=O)C1=C(O)C(=O)N(CC(F)(F)F)C1)c1ccc2ccccc2c1 [Example 300] , state its measured log10 of IC50. 3.58

Using the record for CC1C(C(=O)NCCCc2ccc(Cl)c(Cl)c2)=C(O)C(=O)N1CCOc1ccccc1 (centres unmarked) [Example 194] , state its measured log10 of IC50. 2.67

Using the record for Cc1nc2cc(C#CCNC(=O)C3=C(O)C(=O)N(C)C3)ccc2s1 [Example 247] , state its measured log10 of IC50. 3.92

Using the record for Cc1ccc(C#CCNC(=O)C2=C(O)C(=O)N(C)C2)cc1C(F)(F)F [Example 248] , state its measured log10 of IC50. 3.67

Using the record for O=C(NCCCOc1ccccc1)C1=C(O)C(=O)N(CC(F)(F)F)C1 [Example 299] , state its measured log10 of IC50. 3.44
